B1: library; numbered along this chain (parent)
chain: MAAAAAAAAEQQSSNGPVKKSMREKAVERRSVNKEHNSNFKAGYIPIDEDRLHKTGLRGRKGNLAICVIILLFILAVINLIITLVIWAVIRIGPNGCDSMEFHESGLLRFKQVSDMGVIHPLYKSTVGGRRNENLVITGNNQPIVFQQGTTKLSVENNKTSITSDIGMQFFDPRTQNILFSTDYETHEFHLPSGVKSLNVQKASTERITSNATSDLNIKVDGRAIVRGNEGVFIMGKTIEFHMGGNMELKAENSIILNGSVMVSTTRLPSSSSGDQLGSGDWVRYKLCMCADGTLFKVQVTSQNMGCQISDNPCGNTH

Variants of: B1
Assay: SGCB cell-surface expression functional score (HA stain, bin4 vs bin1, normalised to synonymous) (log10 ratio); higher = more cell-surface SGCB (functional)
Please use yes whenever SGCB cell-surface expression functional score (log10) is not below -0.2, and no whenever it is.

Worked set:
N79G; yes
P121C; yes
M262L; yes
F241D; no
V127N; no
Q12D; no
L249G; yes
A26F; yes
Y285E; no
R207Q; no

Ask: hey, is SGCB cell-surface expression functional score (log10) for this one >= -0.2? L257D
Reply: no
